Tested on: HCC-2998 colon
Assay: NCI tumour cell line growth inhibition, 48 h
Each item that follows carries a reported log10(TGI).
endpoint name: log10(TGI) (log10 of the value in µM)

- COc1ccc2nc3cc([N+](=O)[O-])ccc3c(NCCCN(CCO)CCO)c2c1: 0.90
- C=CC[N+](CCO)(CCO)CCCCCCCCCCCCCCCCCC: 1.03
- Cc1ccc(C(=O)/C(=C\c2ccc([N+](=O)[O-])cc2)S(=O)Cc2ccc(F)cc2)cc1 (centres undefined): 0.51
- CCNc1cc2c3c(c1)CCCN3CCC2: 1.85
- COc1ccc(-c2nn(-c3cccc(Cl)c3)cc2-c2c(C#N)c(=O)n3[nH]c(-c4ccc(C)cc4)nc3c2C#N)cc1: 1.03

* * *

Each item that follows carries a reported log10(TGI).
Test system: SK-MEL-28 melanoma
Assay: NCI tumour cell line growth inhibition, 48 h
endpoint name: log10(TGI) (log10 of the value in µM)

- COc1cc(C=O)c(-c2cc3c(cc2C2(C)OCCS2)OCO3)c(OC)c1OC (centres undefined): 1.41
- COc1cccc2c1-c1c(OC)cccc1SS2: 1.90
- COc1cc(/C=c2/c3ccccc3n3c2cc(-c2ccccc2)[n+]3C)cc(OC)c1OC: 1.28
- CC(=O)Nc1ccc(-c2nnc(SCC(=O)Nc3cccc([N+](=O)[O-])c3)o2)cc1: 1.52
- COc1cc(F)cc([C@@H](CO)NC(=O)[C@@H](C)N2Cc3ccc(-c4nc(NC5CCOCC5)ncc4Cl)cc3C2=O)c1: -1.50
- COc1cc(-c2csc(NC(=O)Nc3cc(C(F)(F)F)cc(C(F)(F)F)c3)n2)cc(OC)c1OC: 1.10

* * *

Each item that follows carries a reported TGI.
Tested on: SF-539 CNS
Test: NCI tumour cell line growth inhibition, 48 h
endpoint name: TGI (µM)

* CN[C@@H]1C[C@H]2O[C@@](C)([C@@H]1OC)n1c3ccccc3c3c4c(c5c6ccccc6n2c5c31)C(=O)N[C@H]4O | 0.115
* COc1cc(-c2csc(NC(=O)Nc3cc(C(F)(F)F)cc(C(F)(F)F)c3)n2)cc(OC)c1OC | 6.75

* * *

Test system: RXF 393 renal
Experiment: NCI tumour cell line growth inhibition, 48 h
endpoint name: TGI (µM)

• COc1cc2c(cc1OC)-c1ccc3cc4c(cc3c1N(CCN(C)C)C2)OCO4 = 2.89
• COc1ccc2nc3cc([N+](=O)[O-])ccc3c(NCCCN(CCO)CCO)c2c1 = 11.5
• S=c1nc2sc3c(c2c(Nc2ccc(Br)cc2)[nH]1)CCN(N1CCc2c(sc4nc(=S)[nH]c(Nc5ccc(Br)cc5)c24)C1)C3 = 42.5
• COc1ccc(/C(Cl)=C(\C=O)c2ccccc2)cc1OC = 69
• Cc1ccc(C(=O)/C(=C\c2ccc([N+](=O)[O-])cc2)S(=O)Cc2ccc(F)cc2)cc1 (stereo unspecified) = 3.28
• CN(C)CCCNc1cnc2cc3ccccc3cc2n1 = 50.2
• COc1ccc2c(c1)c1nc3cc(C)c(C)cc3nc1n2CCN(C)C = 2.88
• Cc1[nH]c(=O)nc2nc3ccc(Cl)cc3c(NC(C)(CO)CO)c12 = 88.8
• CCCCOC(=O)c1ccc(NC(=O)CCl)cc1 = 3.19
• COC(=O)[C@@]1(O)CC(C)C=C1C=O (stereo partly specified) = 42.9
• CCC(=O)C(C)C(=O)C(=O)C(=O)OC (stereo unspecified) = 99.3
• O=CC(Br)C(Br)c1ccccc1 (stereo unspecified) = 3.78
• O=C(/C=C/c1cccc([N+](=O)[O-])c1)c1ccc(O)c(CN2CCN(c3cc4c(cc3F)c(=O)c(C(=O)O)cn4C3CC3)CC2)c1 = 2.99
• O=c1oc2c/c(=C\c3ccccc3)c(=O)c3cccc1c3-2 = 72.6
• O=C(O)C(C(=O)C(=O)C(C(=O)O)c1ccc(Cl)cc1)c1ccc(Cl)cc1 (stereo unspecified) = 8.37
• Cc1cc([N+](=O)[O-])ccc1NS(=O)(=O)c1cc(Cl)ccc1Cl = 18.5
• COc1ccc(-c2cn(-c3cccc(C(=O)/C=C/c4ccc(O)c(OC)c4)c3)c(=O)[nH]2)cc1 = 28.6
• Cn1cc(-c2nc(-c3c[nH]c4ccncc34)cs2)c2cc(F)ccc21 = 3.04
• O=C(NCCN1CCC(O)CC1)c1cc2c(o1)C(=O)c1ccccc1C2=O = 2.32
• COC(=O)c1ccc(NC(=O)c2cc(OC)c(OC)c(OC)c2)cc1 = 77.2
• Cc1cccc(Cl)c1NC(=O)c1cnc(Nc2cc(N3CCOCC3)cc(N3CCOCC3)c2)s1 = 0.153
